Experimental target: Adenylate cyclase type 1 (Homo sapiens, UniProt Q08828)
Procedure text: Ability to activate the conversion of [32P] ATP to [32P]-cyclic AMP mediated by adenylate cyclase 1
Format: functional
Sequence (Q08828 whole entry): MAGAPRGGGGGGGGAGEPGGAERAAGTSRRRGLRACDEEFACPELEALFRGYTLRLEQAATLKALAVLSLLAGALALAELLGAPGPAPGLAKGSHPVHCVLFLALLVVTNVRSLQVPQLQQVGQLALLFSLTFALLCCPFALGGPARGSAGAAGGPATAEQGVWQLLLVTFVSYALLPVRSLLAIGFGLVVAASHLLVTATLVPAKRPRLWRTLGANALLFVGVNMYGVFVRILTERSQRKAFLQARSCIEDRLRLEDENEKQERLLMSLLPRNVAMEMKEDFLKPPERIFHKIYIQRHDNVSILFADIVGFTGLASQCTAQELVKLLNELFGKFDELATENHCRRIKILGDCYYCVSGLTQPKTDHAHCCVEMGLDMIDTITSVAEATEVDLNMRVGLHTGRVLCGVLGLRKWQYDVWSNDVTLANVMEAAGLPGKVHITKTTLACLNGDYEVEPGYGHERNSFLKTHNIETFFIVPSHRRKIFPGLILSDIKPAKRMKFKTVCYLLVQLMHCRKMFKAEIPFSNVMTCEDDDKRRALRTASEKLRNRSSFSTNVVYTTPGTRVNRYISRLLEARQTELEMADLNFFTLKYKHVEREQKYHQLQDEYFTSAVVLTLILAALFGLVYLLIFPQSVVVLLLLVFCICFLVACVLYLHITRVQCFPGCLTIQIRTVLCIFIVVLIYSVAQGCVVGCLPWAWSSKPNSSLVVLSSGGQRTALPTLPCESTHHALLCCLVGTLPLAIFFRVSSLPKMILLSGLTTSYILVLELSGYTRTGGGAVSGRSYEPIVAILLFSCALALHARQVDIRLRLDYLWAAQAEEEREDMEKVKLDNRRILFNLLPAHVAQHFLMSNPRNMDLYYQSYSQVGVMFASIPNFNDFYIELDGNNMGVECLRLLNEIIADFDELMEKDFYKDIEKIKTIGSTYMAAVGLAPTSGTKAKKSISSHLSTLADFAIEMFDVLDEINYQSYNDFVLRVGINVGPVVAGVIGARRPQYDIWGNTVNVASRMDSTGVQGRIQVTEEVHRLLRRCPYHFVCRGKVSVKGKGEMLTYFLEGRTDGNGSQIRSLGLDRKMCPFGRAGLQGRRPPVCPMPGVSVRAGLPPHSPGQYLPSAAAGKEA
Below is a list of entries, each paired with its recorded EC50 value.

These recorded examples may help you get a feel for the data.
q: Write down EC50 measured for item C=CCNC(=O)O[C@H]1[C@H]2C(C)(C)CC[C@H](O)[C@]2(C)[C@@]2(O)C(=O)C[C@](C)(C=C)O[C@]2(C)[C@H]1OC(C)=O
a: > 2 µM

q: Fill in EC50 for record C=C[C@@]1(C)CC(=O)[C@]2(O)[C@@]3(C)[C@@H](O)CCC(C)(C)[C@@H]3[C@H](OC(=O)NCCN3CCCCC3)[C@H](OC(C)=O)[C@@]2(C)O1
a: < 2 µM

***
q: State its EC50: C=C[C@@]1(C)CC(=O)[C@]2(O)[C@@]3(C)[C@@H](O)CCC(C)(C)[C@@H]3[C@H](O)[C@H](OC(=O)NCCC)[C@@]2(C)O1
a: < 2 µM

====

# Activity listing for each entry below
Experimental target: Adenylate cyclase type 1 (Homo sapiens, UniProt Q08828)
Procedure text: Maximum stimulation activity measured with 100 uM forskolin mediated by adenylate cyclase 1
Type: functional
Sequence (Q08828 whole entry, looked up): as the sequence (Q08828 whole entry) above
Give just the number in %; leave the unit off.

Some solved entries appear below for comparison.
q: Retrieve Activity measured for C=C[C@@]1(C)CC(=O)[C@]2(O)[C@@]3(C)[C@@H](O)CCC(C)(C)[C@@H]3[C@H](OC(=O)NCCC(C)(C)C)[C@H](OC(C)=O)[C@@]2(C)O1 and print it.
a: 84

q: Entry C=C[C@@]1(C)CC(=O)[C@]2(O)[C@@]3(C)[C@@H](O)CCC(C)(C)[C@@H]3[C@H](OC(=O)NCCN(C)C)[C@H](O)[C@@]2(C)O1 needs its Activity filled in; supply it.
a: 131

Consider now this further compound.
q: Name the recorded Activity of the compound listed here: C=C[C@@]1(C)CC(=O)[C@]2(O)[C@@]3(C)[C@@H](O)CCC(C)(C)[C@@H]3[C@H](OC(=O)NCCO)[C@H](OC(C)=O)[C@@]2(C)O1
a: 57

====

Experimental target: Adenylate cyclase type 1 (Homo sapiens)
Procedure text: Inhibition of [125 I]6-IHPP-forskolin binding to adenylate cyclase 1
# reported IC50; entries follow

q: Read off the recorded IC50 for C=C[C@@]1(C)CC(=O)[C@]2(O)[C@@]3(C)[C@@H](O)CCC(C)(C)[C@@H]3[C@H](OC(=O)NCCC)[C@H](OC(C)=O)[C@@]2(C)O1
a: < 150 nM

q: Return IC50 (reported value) for this compound: C=C[C@@]1(C)CC(=O)[C@]2(O)[C@@]3(C)[C@@H](O)CCC(C)(C)[C@@H]3[C@H](OC(=O)NCC3CCCCC3)[C@H](O)[C@@]2(C)O1
a: > 150 nM

q: Indicate the recorded IC50 value for this compound: C=C[C@@]1(C)CC(=O)[C@]2(O)[C@@]3(C)[C@@H](O)CCC(C)(C)[C@@H]3[C@H](O)[C@H](OC(=O)NCCO)[C@@]2(C)O1
a: < 150 nM

q: For the compound C=C[C@@]1(C)CC(=O)[C@]2(O)[C@@]3(C)[C@@H](O)CCC(C)(C)[C@@H]3[C@H](OC(=O)NCCO)[C@H](O)[C@@]2(C)O1 , give its measured IC50 value.
a: > 150 nM

q: Give IC50 for the following compound: C=C[C@@]1(C)CC(=O)[C@]2(O)[C@@]3(C)[C@@H](O)CCC(C)(C)[C@@H]3[C@H](OC(=O)NCCC(C)(C)C)[C@H](OC(C)=O)[C@@]2(C)O1
a: > 150 nM

q: Please report the measured IC50 for C=CCNC(=O)O[C@H]1[C@H]2C(C)(C)CC[C@H](O)[C@]2(C)[C@@]2(O)C(=O)C[C@](C)(C=C)O[C@]2(C)[C@H]1OC(C)=O
a: < 150 nM

q: Specify measured IC50 for C=C[C@@]1(C)CC(=O)[C@]2(O)[C@@]3(C)[C@@H](O)CCC(C)(C)[C@@H]3[C@H](OC(=O)NCCN(C)C)[C@H](O)[C@@]2(C)O1 .
a: > 150 nM

q: For the compound C=C[C@@]1(C)CC(=O)[C@]2(O)[C@@]3(C)[C@@H](O)CCC(C)(C)[C@@H]3[C@H](O)[C@H](OC(=O)NCCN)[C@@]2(C)O1 , give its measured IC50 value.
a: < 150 nM

q: State its IC50: C=C[C@@]1(C)CC(=O)[C@]2(O)[C@@]3(C)[C@@H](O)CCC(C)(C)[C@@H]3[C@H](OC(=O)NCCc3ccc(O)cc3)[C@H](O)[C@@]2(C)O1
a: > 150 nM

q: Identify measured IC50 associated with C=C[C@@]1(C)CC(=O)[C@]2(O)[C@@]3(C)[C@@H](O)CCC(C)(C)[C@@H]3[C@H](OC(=O)NCCN3CCCCC3)[C@H](OC(C)=O)[C@@]2(C)O1
a: < 150 nM

q: Identify measured IC50 corresponding to C=C[C@@]1(C)CC(=O)[C@]2(O)[C@@]3(C)[C@@H](O)CCC(C)(C)[C@@H]3[C@H](OC(=O)NCCc3ccc(N)cc3)[C@H](OC(C)=O)[C@@]2(C)O1
a: < 150 nM

====

Experimental target: Adenylate cyclase type 1 (Homo sapiens, UniProt Q08828)
Procedure text: Ability to activate the conversion of [32P] ATP to [32P]-cyclic AMP mediated by adenylate cyclase 1
Type: functional
Catalogue of compounds with associated EC50

Completed entries (count: 5):
q: Tell me EC50 reported for C=CCNC(=O)O[C@H]1[C@@H](O)[C@H]2C(C)(C)CC[C@H](O)[C@]2(C)[C@@]2(O)C(=O)C[C@](C)(C=C)O[C@]12C
a: > 2000 nM

q: Indicate the recorded EC50 value for this compound: C=CCNC(=O)O[C@H]1[C@H]2C(C)(C)CC[C@H](O)[C@]2(C)[C@@]2(O)C(=O)C[C@](C)(C=C)O[C@]2(C)[C@H]1O
a: > 2000 nM

q: Note down EC50 recorded for C=C[C@@]1(C)CC(=O)[C@]2(O)[C@@]3(C)[C@@H](O)CCC(C)(C)[C@@H]3[C@H](O)[C@H](OC(=O)NCCOC)[C@@]2(C)O1
a: > 2000 nM

q: Return value of EC50 for input C=C[C@@]1(C)CC(=O)[C@]2(O)[C@@]3(C)[C@@H](O)CCC(C)(C)[C@@H]3[C@H](O)[C@H](OC(=O)NCCc3ccc(O)cc3)[C@@]2(C)O1 , no commentary.
a: < 2000 nM

q: Complete the entry with EC50 for C=C[C@@]1(C)CC(=O)[C@]2(O)[C@@]3(C)[C@@H](O)CCC(C)(C)[C@@H]3[C@H](OC(=O)NCCc3ccc(N)cc3)[C@H](OC(C)=O)[C@@]2(C)O1
a: < 2000 nM

***
q: Report EC50 for C=C[C@@]1(C)CC(=O)[C@]2(O)[C@@]3(C)[C@@H](O)CCC(C)(C)[C@@H]3[C@H](OC(=O)NCC(C)C)[C@H](O)[C@@]2(C)O1
a: > 2000 nM

q: Could you please provide reported EC50 for C=C[C@@]1(C)CC(=O)[C@]2(O)[C@@]3(C)[C@@H](O)CCC(C)(C)[C@@H]3[C@H](OC(=O)NCCC)[C@H](O)[C@@]2(C)O1 ? Thanks!
a: > 2000 nM

q: Write down EC50 measured for item C=C[C@@]1(C)CC(=O)[C@]2(O)[C@@]3(C)[C@@H](O)CCC(C)(C)[C@@H]3[C@H](OC(=O)NCCC)[C@H](OC(C)=O)[C@@]2(C)O1
a: > 2000 nM

====

Experimental target: Adenylate cyclase type 1 (Homo sapiens, UniProt Q08828)
Procedure text: Conversion of [32P] ATP to [32P]-cyclic AMP mediated by adenylate cyclase 1
Assay type: functional
Particulars: read-out: EC50
Endpoint: pEC50
Give only the number. pEC50 is defined as minus log10 of concentration in molar units.

Guide cases for pEC50, answers given:
q: Give pEC50 for C=C[C@@]1(C)CC(=O)[C@]2(O)[C@@]3(C)[C@@H](O)CCC(C)(C)[C@@H]3[C@H](OC(=O)NCCN(C)C)[C@H](O)[C@@]2(C)O1
a: 5.31

q: Using the record for C=C[C@@]1(C)CC(=O)[C@]2(O)[C@@]3(C)[C@@H](O)CCC(C)(C)[C@@H]3[C@H](O)[C@H](OC(=O)NCCc3ccccn3)[C@@]2(C)O1 , state its measured pEC50.
a: 5.96

q: Give pEC50 for the following compound: C=C[C@@]1(C)CC(=O)[C@]2(O)[C@@]3(C)[C@@H](O)CCC(C)(C)[C@@H]3[C@H](OC(=O)NCCc3ccccc3)[C@H](O)[C@@]2(C)O1
a: 5.96

As a next step, examine the compound that follows.
q: Fill in reported pEC50 for this entry: C=C[C@@]1(C)CC(=O)[C@]2(O)[C@@]3(C)[C@@H](O)CCC(C)(C)[C@@H]3[C@H](O)[C@H](OC(=O)NCC(C)C)[C@@]2(C)O1
a: 5.57
